Test: in vivo
Set-up: species or system mice
Details: male, NODSCID 1L2RγKO, mouse, iv, total radioactivity, Seminal uptake
# reported tissue uptake at 24 h; entries follow
Could you kindly put the unit after your number?

- compound: "COc1ccc(CCCC(=O)NCC(=O)N[C@@H](CCCCNC(=O)CN2CCN(CC(=O)O)CCN(CC(=O)O)CCN(CC(=O)O)CC2)C(=O)NC[C@H]2CC[C@H](C(=O)N[C@@H](Cc3c4ccccc4cc4ccccc34)C(=O)NCCCC[C@H](NC(=O)N[C@@H](COCC(=O)O)C(=O)O)C(=O)O)CC2)cc1 [177Lu-HTK04028, metal not drawn]"
  tissue uptake at 24 h: "0.12 %ID/g"
- compound: "O=C(O)CCC[C@H](NC(=O)N[C@@H](CCCCNC(=O)[C@H](Cc1c2ccccc2cc2ccccc12)NC(=O)[C@H]1CC[C@H](CNC(=O)[C@H](CCCCNC(=O)CN2CCN(CC(=O)O)CCN(CC(=O)O)CCN(CC(=O)O)CC2)NC(=O)CNC(=O)CCCc2ccc(Cl)cc2)CC1)C(=O)O)C(=O)O [177Lu-HTK03153, metal not drawn]"
  tissue uptake at 24 h: "0.7 %ID/g"
- compound: "COc1ccc(CCCC(=O)NCC(=O)N[C@@H](CCCCNC(=O)CN2CCN(CC(=O)O)CCN(CC(=O)O)CCN(CC(=O)O)CC2)C(=O)NC[C@H]2CC[C@H](C(=O)N[C@@H](Cc3c4ccccc4cc4ccccc34)C(=O)NCCCC[C@H](NC(=O)N[C@@H](CSCC(=O)O)C(=O)O)C(=O)O)CC2)cc1 [177Lu-HTK04048, metal not drawn]"
  tissue uptake at 24 h: "0.11 %ID/g"
- compound: "COc1ccc(CCCC(=O)NCC(=O)N[C@@H](CCCCNC(=O)CN2CCN(CC(=O)O)CCN(CC(=O)O)CCN(CC(=O)O)CC2)C(=O)NC[C@H]2CC[C@H](C(=O)N[C@@H](Cc3c4ccccc4cc4ccccc34)C(=O)NCCCC[C@H](NC(=O)N[C@@H](CCCC(=O)O)C(=O)O)C(=O)O)CC2)cc1 [177Lu-HTK03170, metal not drawn]"
  tissue uptake at 24 h: "0.08 %ID/g"

Which tissue uptake at 24 h value belongs to O=C(O)CCC[C@H](NC(=O)N[C@@H](CCCCNC(=O)[C@H](Cc1c2ccccc2cc2ccccc12)NC(=O)[C@H]1CC[C@H](CNC(=O)CN2CCN(CC(=O)O)CCN(CC(=O)O)CCN(CC(=O)O)CC2)CC1)C(=O)O)C(=O)O [177Lu-HTK03149, metal not drawn] ?
0.02 %ID/g

====

Experiment: in vivo
Parameters: species or system mice
Details: male, NODSCID 1L2RγKO, mouse, iv, total radioactivity, Salivary uptake
# tissue uptake at 24 h per entry
Lab book: enter the figure in %ID/g, no units written.

- compound: "COc1ccc(CCCC(=O)NCC(=O)N[C@@H](CCCCNC(=O)CN2CCN(CC(=O)O)CCN(CC(=O)O)CCN(CC(=O)O)CC2)C(=O)NC[C@H]2CC[C@H](C(=O)N[C@@H](Cc3c4ccccc4cc4ccccc34)C(=O)NCCCC[C@H](NC(=O)N[C@@H](CSCC(=O)O)C(=O)O)C(=O)O)CC2)cc1 [177Lu-HTK04048, metal not drawn]"
  units-label: "%ID/g"
  tissue uptake at 24 h: 0.42

Now for another entry.
Look up tissue uptake at 24 h for this compound: O=C(O)CCC[C@H](NC(=O)N[C@@H](CCCCNC(=O)[C@H](Cc1c2ccccc2cc2ccccc12)NC(=O)[C@H]1CC[C@H](CNC(=O)[C@H](CCCCNC(=O)CN2CCN(CC(=O)O)CCN(CC(=O)O)CCN(CC(=O)O)CC2)NC(=O)CNC(=O)CCCc2ccc(Cl)cc2)CC1)C(=O)O)C(=O)O [177Lu-HTK03153, metal not drawn]
1.25

====

Test: in vivo
Details: male, NODSCID 1L2RγKO, mouse, iv, total radioactivity, Lacrimal uptake
measured-parameter: tissue uptake at 1 h (%ID/g)
Note: unit %ID/g is implicit; provide only the numeric part.

- compound: "O=C(O)CCC[C@H](NC(=O)N[C@@H](CCCCNC(=O)[C@H](Cc1c2ccccc2cc2ccccc12)NC(=O)c1ccc(NC(=O)CN2CCN(CC(=O)O)CCN(CC(=O)O)CCN(CC(=O)O)CC2)cc1)C(=O)O)C(=O)O [68Ga-HTK04041, metal not drawn]"
  measured-parameter: "tissue uptake at 1 h"
  recorded-result: 0.11
- compound: "O=C(O)CCC[C@H](NC(=O)N[C@@H](CCCCNC(=O)[C@H](Cc1c2ccccc2cc2ccccc12)NC(=O)[C@H]1CC[C@H](CNC(=O)CN2CCN(CC(=O)O)CCN(CC(=O)O)CCN(CC(=O)O)CC2)CC1)C(=O)O)C(=O)O [68Ga-HTK03149, metal not drawn]"
  measured-parameter: "tissue uptake at 1 h"
  recorded-result: 0.1
- compound: "O=C(O)CCC[C@H](NC(=O)N[C@@H](CCCCNC(=O)[C@H](Cc1ccc2ccccc2c1)NC(=O)[C@H]1CC[C@H](CNC(=O)CN2CCN(CC(=O)O)CCN(CC(=O)O)CCN(CC(=O)O)CC2)CC1)C(=O)O)C(=O)O [68Ga-HTK03169, metal not drawn]"
  measured-parameter: "tissue uptake at 1 h"
  recorded-result: 0.13

Switching to the query record.
Give the measured tissue uptake at 1 h of O=C(O)CCCCC(NC(=O)N[C@@H](CCCCNC(=O)[C@H](Cc1c2ccccc2cc2ccccc12)NC(=O)[C@H]1CC[C@H](CNC(=O)CN2CCN(CC(=O)O)CCN(CC(=O)O)CCN(CC(=O)O)CC2)CC1)C(=O)O)C(=O)O (single isomer, unassigned) [68Ga-HTK03189A, metal not drawn] .
0.18

====

tissue uptake at 120 h values, listed per item
Assay: in vivo
Set-up: species or system mice
Conditions: male, NODSCID 1L2RγKO, mouse, iv, total radioactivity, Pancreas uptake
Write the answer as a number in %ID/g, unit excluded.

Below, 4 compounds whose answers are already recorded.
- compound: "O=C(O)CCC[C@H](NC(=O)N[C@@H](CCCCNC(=O)[C@H](Cc1c2ccccc2cc2ccccc12)NC(=O)[C@H]1CC[C@H](CNC(=O)CN2CCN(CC(=O)O)CCN(CC(=O)O)CCN(CC(=O)O)CC2)CC1)C(=O)O)C(=O)O [177Lu-HTK03149, metal not drawn]"
  tissue uptake at 120 h [%ID/g]: 0.02
- compound: "COc1ccc(CCCC(=O)NCC(=O)N[C@@H](CCCCNC(=O)CN2CCN(CC(=O)O)CCN(CC(=O)O)CCN(CC(=O)O)CC2)C(=O)NC[C@H]2CC[C@H](C(=O)N[C@@H](Cc3c4ccccc4cc4ccccc34)C(=O)NCCCC[C@H](NC(=O)N[C@@H](COCC(=O)O)C(=O)O)C(=O)O)CC2)cc1 [177Lu-HTK04028, metal not drawn]"
  tissue uptake at 120 h [%ID/g]: 0.03
- compound: "O=C(O)CCC[C@H](NC(=O)N[C@@H](CCCCNC(=O)[C@H](Cc1c2ccccc2cc2ccccc12)NC(=O)[C@H]1CC[C@H](CNC(=O)[C@H](CCCCNC(=O)CN2CCN(CC(=O)O)CCN(CC(=O)O)CCN(CC(=O)O)CC2)NC(=O)CNC(=O)CCCc2ccc(Cl)cc2)CC1)C(=O)O)C(=O)O [177Lu-HTK03153, metal not drawn]"
  tissue uptake at 120 h [%ID/g]: 0.15
- compound: "COc1ccc(CCCC(=O)NCC(=O)N[C@@H](CCCCNC(=O)CN2CCN(CC(=O)O)CCN(CC(=O)O)CCN(CC(=O)O)CC2)C(=O)NC[C@H]2CC[C@H](C(=O)N[C@@H](Cc3c4ccccc4cc4ccccc34)C(=O)NCCCC[C@H](NC(=O)N[C@@H](CCCC(=O)O)C(=O)O)C(=O)O)CC2)cc1 [177Lu-HTK03170, metal not drawn]"
  tissue uptake at 120 h [%ID/g]: 0.02

# context switch: different compound, same tissue uptake at 120 h
# lookup: tissue uptake at 120 h of COc1ccc(CCCC(=O)NCC(=O)N[C@@H](CCCCNC(=O)CN2CCN(CC(=O)O)CCN(CC(=O)O)CCN(CC(=O)O)CC2)C(=O)NC[C@H]2CC[C@H](C(=O)N[C@@H](Cc3c4ccccc4cc4ccccc34)C(=O)NCCCC[C@H](NC(=O)N[C@@H](CSCC(=O)O)C(=O)O)C(=O)O)CC2)cc1 [177Lu-HTK04048, metal not drawn]
0.04

====

Test: in vivo
Conditions: male, NODSCID 1L2RγKO, mouse, iv, total radioactivity, Pancreas uptake
measured-parameter: tissue uptake at 1 h (%ID/g)
Form entry: value (%ID/g) — number only.

- molecule: "O=C(O)CCCCC(NC(=O)N[C@@H](CCCCNC(=O)[C@H](Cc1c2ccccc2cc2ccccc12)NC(=O)[C@H]1CC[C@H](CNC(=O)CN2CCN(CC(=O)O)CCN(CC(=O)O)CCN(CC(=O)O)CC2)CC1)C(=O)O)C(=O)O (single isomer, unassigned) [68Ga-HTK03189A, metal not drawn]"
  units-label: "%ID/g"
  tissue uptake at 1 h: 0.15
- molecule: "O=C(O)CCC[C@H](NC(=O)N[C@@H](CCCCNC(=O)[C@H](Cc1c2ccccc2cc2ccccc12)NC(=O)Cc1cccc(CNC(=O)CN2CCN(CC(=O)O)CCN(CC(=O)O)CCN(CC(=O)O)CC2)c1)C(=O)O)C(=O)O [68Ga-HTK04037, metal not drawn]"
  units-label: "%ID/g"
  tissue uptake at 1 h: 0.11
- molecule: "O=C(O)CN1CCN(CC(=O)O)CCN(CC(=O)NC[C@H]2CC[C@H](C(=O)N[C@@H](Cc3c4ccccc4cc4ccccc34)C(=O)NCCCC[C@H](NC(=O)N[C@@H](C[C@H](F)C(=O)O)C(=O)O)C(=O)O)CC2)CCN(CC(=O)O)CC1 [68Ga-HTK04040, metal not drawn]"
  units-label: "%ID/g"
  tissue uptake at 1 h: 0.61

Turning to the following molecule.
Quick one: tissue uptake at 1 h for O=C(O)CCC[C@H](NC(=O)N[C@@H](CCCCNC(=O)[C@H](Cc1c2ccccc2cc2ccccc12)NC(=O)[C@H]1CC[C@H](CNC(=O)CN2CCN(CC(=O)O)CCN(CC(=O)O)CCN(CC(=O)O)CC2)CC1)C(=O)O)C(=O)O [68Ga-HTK03149, metal not drawn] ?
0.17
